Where do the numbers come from? From PubChem BioAssay (NCI).

Test system: RXF 393 renal
Experiment: NCI-60 one-dose screen, 48 h
Conditions: 10 µM unless noted
Compounds without any hit were thinned out: in the full panel of roughly 83,000, 20% have a hit. Active and inactive are the calls of the source. The calls were made as follows: active = growth percent below 10; inactive = the rest.
Form entry, call: pick from active, inactive

Returns: the outcome recorded for `O=C(N/N=C\c1ccccc1O)C1CC1` in this assay.
inactive

Recorded call for COC(=O)C(N)CSC(c1ccccc1)(c1ccccc1)c1ccccc1 (stereo unspecified) ?
active

Per the records of this test, what outcome belongs to `NC1=NN(c2ccccc2)C(=O)/C1=C/c1ccc(Cl)cc1` ?
inactive

What did the test return for `Cn1cccc1/C=C1/SC(=S)N(CCc2ccc(O)cc2)C1=O` ?
inactive

Look up the recorded call for `Cc1nn2c(-c3nc4cc(Cl)c(Cl)cc4[nH]3)c(-c3ccc(F)cc3)nc2s1` in this test.
active

Outcome? `CC(=O)O[C@@H]1CCN2C(=O)N(C)c3ccccc3[C@@H]2C1`
inactive

Returns: the outcome recorded for `O=C(/C(=C(\C(=O)c1ccccc1)c1ccccc1)c1ccccc1)c1ccccc1` in this assay.
inactive

// outcome(item) with item = `c1csc(-c2nc(-c3cc4ccccc4c(N4CCOCC4)n3)cs2)c1`
inactive

Please let me know the test result on file for `Brc1cnc2[nH]cc(-c3nnc(-c4ccccc4)o3)c2c1` .
inactive

Returns: the outcome recorded for `COc1cc2c(cc1-c1c(C)noc1C)ncc1nc(C3CC3)n([C@H](C)COC(F)F)c12` in this assay.
inactive

Which outcome was entered for the compound `COc1ccc2c(c1)c(-c1nc(-c3c[nH]c4ncccc34)cs1)cn2CCN` in this test?
inactive

Short answer needed: outcome of this test for `CN1CCN(CCOc2ccc(-c3cnc4c(-c5ccccc5F)cnn4c3)cc2)CC1` ?
inactive

// outcome(item) with item = `COc1ccc(/C(=C\c2ccc3c(c2)OCO3)C(=O)Nc2nc3ccccc3s2)cc1OC`
inactive

Fill in: this test's call for `O=C1C(Cl)=C(Nc2ccc(S(=O)(=O)c3ccc(NC4=C(Cl)C(=O)c5ccccc5C4=O)cc3)cc2)C(=O)c2ccccc21` is ___
active

For this compound, state the assay outcome: CC(=O)NC1=C(C#N)C(c2ccccc2Cl)c2c(ccc3ccccc23)O1 (stereo unspecified)
inactive

Which outcome was entered for the compound `C[N+](C)(CCCCCC[N+](C)(C)C1c2ccccc2-c2ccccc21)C1c2ccccc2-c2ccccc21` in this test?
inactive

For `COc1cnc2c(c1)C(=O)c1c-2n(CCCNCCN2CCOCC2)c(=O)c2cc([N+](=O)[O-])ccc12` , what call appears in the results of this test?
active

Record lookup: outcome of this test for `Cc1ccc2oc(=O)cc(-c3sc(N4CCCCC4)nc3-c3ccccc3)c2c1` ?
inactive

Tell me the assay call for `COc1ccc(C(=O)/C=C/c2cc(-c3cc(OC)c(OC)c(OC)c3)n[nH]2)cc1OC` please.
active

What call does the record list for `CCN(CC)c1ccc(/C=C/c2cc(C)c3ccccc3n2)cc1` ?
inactive

GET /call?item= `Cn1cnc2c1c(=O)n(CCC(=O)Nc1ccc(F)cc1)c(=O)n2C` returns the recorded outcome of this test.
inactive

Outcome? `CCc1ccccc1NC(=O)c1sc2nc3c(cc2c1N)CCCC3`
inactive

Could you check what this test reported for CCC1C(=O)COC1=O (stereo unspecified) ?
inactive

Per the assay record, what outcome was assigned to `COC(=O)[C@@H]1[C@H]2C[C@H]3c4[nH]c5cc(OC)ccc5c4CCN3C[C@@H]2C[C@H](OC(=O)/C=C/c2ccnc(OC)c2)[C@H]1OC` ?
inactive

// return assay outcome for `Fc1ccc2nc(-c3cc(-c4ccc5c(c4)OCO5)n[nH]3)[nH]c2c1`
inactive

Any idea what this test logged for CCCCC(=O)OC1CCCCC1C (stereo unspecified) ?
inactive
